- assayed.target: Gastrin/cholecystokinin type B receptor (Mus musculus)
- Sequence (P56481 whole entry): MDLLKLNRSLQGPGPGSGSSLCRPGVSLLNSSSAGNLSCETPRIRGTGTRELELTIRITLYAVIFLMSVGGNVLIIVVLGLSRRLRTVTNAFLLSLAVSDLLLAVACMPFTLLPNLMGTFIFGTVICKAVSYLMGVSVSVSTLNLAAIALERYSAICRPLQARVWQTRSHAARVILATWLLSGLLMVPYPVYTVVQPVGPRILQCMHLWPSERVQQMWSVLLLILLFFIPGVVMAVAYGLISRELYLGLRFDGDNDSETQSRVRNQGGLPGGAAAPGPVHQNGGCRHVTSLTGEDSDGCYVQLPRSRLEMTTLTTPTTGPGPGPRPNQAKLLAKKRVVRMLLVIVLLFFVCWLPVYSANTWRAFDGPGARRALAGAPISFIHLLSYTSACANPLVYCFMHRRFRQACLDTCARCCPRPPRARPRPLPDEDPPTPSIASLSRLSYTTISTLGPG
pIC50 by entry:
Please treat pIC50 as minus the base-10 logarithm of the molar concentration.

- compound: "O=C(O)C[C@H](Cc1ccccc1)NC(=O)/C(=C/c1c[nH]c2ccccc12)NC(=O)OC1C2CC3CC(C2)CC1C3 (some centres not stated)"
  metric.name: "pIC50"
  endpoint.value: 7.89

# input for lookup
Ask: What pIC50 value was documented for this compound, O=C(O)C[C@@H](Cc1ccccc1)NC(=O)C(=Cc1c[nH]c2ccccc12)NC(=O)OC1C2CC3CC(C2)CC1C3 (some centres not stated) ?
Result: 7.22

* * *

Measured IC50, listed per entry.
- assayed.target: Cholecystokinin receptor type A (Rattus norvegicus)
- Sequence (P30551 whole entry): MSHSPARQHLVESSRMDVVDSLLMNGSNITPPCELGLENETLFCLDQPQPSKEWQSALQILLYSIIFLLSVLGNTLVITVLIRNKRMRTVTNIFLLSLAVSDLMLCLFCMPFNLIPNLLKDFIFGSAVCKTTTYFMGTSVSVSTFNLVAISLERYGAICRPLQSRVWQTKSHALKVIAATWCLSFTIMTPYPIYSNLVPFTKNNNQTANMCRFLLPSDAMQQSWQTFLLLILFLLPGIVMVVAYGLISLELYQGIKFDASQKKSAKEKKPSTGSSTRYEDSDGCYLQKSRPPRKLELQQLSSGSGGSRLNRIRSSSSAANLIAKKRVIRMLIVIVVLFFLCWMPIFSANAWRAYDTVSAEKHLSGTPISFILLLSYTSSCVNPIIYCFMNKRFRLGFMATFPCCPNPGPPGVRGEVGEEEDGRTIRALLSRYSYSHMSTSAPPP
// note: answer is a bare numeric in nM

Record excerpt, results attached:
- molecule: "O=C(O)C[C@@H](Cc1ccccc1)NC(=O)C(=Cc1c[nH]c2ccccc12)NC(=O)OC1C2CC3CC(C2)CC1C3 (some centres undefined)"
  IC50 / nM: 3.9
- molecule: "C[C@](Cc1c[nH]c2ccccc12)(NC(=O)OC1C2CC3CC(C2)CC1C3)C(=O)N[C@H](CC(=O)O)Cc1ccccc1 (some centres undefined)"
  IC50 / nM: 30
- molecule: "O=C(O)C[C@@H](Cc1ccccc1)NC(=O)/C(=C/c1c[nH]c2ccccc12)NC(=O)OC1C2CC3CC(C2)CC1C3 (some centres undefined)"
  IC50 / nM: 3.7

With those in mind, consider the next molecule.
Ask: Requested read-out IC50, target or system Cholecystokinin receptor type A (Rattus norvegicus), entry O=C(O)C[C@H](Cc1ccccc1)NC(=O)/C(=C/c1c[nH]c2ccccc12)NC(=O)OC1C2CC3CC(C2)CC1C3 (some centres undefined)
Result: 550
